assay: Selectivity index, ratio for IC50 for human HepG2 cells to MIC for methicillin-resistant Staphylococcus aureus subsp. aureus Rosenbach ATCC 43300; type: toxicity
recorded-endpoint: Selectivity ratio
// no unit string in output, number only

Read off the recorded Selectivity ratio for COc1ccccc1C1CCN(C(=O)/C=C/c2ccc(NC(C)=O)nc2)C1 (racemic) 8.8

* * *

The entries below are paired with their reported pKi.
assay: Competitive inhibition of Acinetobacter baumannii 2208 ATCC 19606 FabI using crotonyl-CoA as substrate in presence of NADPH/NADH after 10 mins by fluorescence assay; set-up: species or system Acinetobacter baumannii ATCC 19606 = CIP 70.34 = JCM 6841
Worth noting: pKi values are minus log10 of concentrations stated in mol/L.

Solved cases below.
| compound | pKi |
| --- | --- |
| O=C(Cc1ccccc1Cl)N1CCC(c2ccc3c(c2)OCO3)C1 (racemic) | 5.41 |
| CC(=O)Nc1ccc(/C=C/C(=O)N2CCC(c3ccc4c(c3)OCO4)C2)cn1 (racemic) | 5.37 |

Please find the next compound below.
Read off the recorded pKi for O=C(Cc1ccccc1Cl)N1CCC(c2ccccn2)C1 (racemic) 4.81

* * *

tested on: Acinetobacter baumannii; assay: Synergistic antibacterial activity against MDR Acinetobacter baumannii ATCC BAA-1605 in presence of colistin by checkerboard method; format: functional
recorded-endpoint: MIC (µg/mL)
Your answer should be a plain number; it is taken to be in µg/mL.

Solved cases below.
| compound | MIC, µg/mL |
| --- | --- |
| COc1ccccc1C1CCN(C(=O)/C=C/c2ccc(NC(C)=O)nc2)C1 (racemic) | 12.5 |
| O=C(Cc1ccccc1Cl)N1CCC(c2ccccc2)C1 (racemic) | 25 |
| O=C(Cc1ccccc1Cl)N1CCC(c2ccc3c(c2)OCO3)C1 (racemic) | 12.5 |

Please find the next compound below.
Read off the recorded MIC for COc1ccccc1C1CCN(C(=O)Cc2ccccc2Cl)C1 (racemic) 25

* * *

test system: Staphylococcus aureus; assay: Antibacterial activity against methicillin-resistant Staphylococcus aureus subsp. aureus Rosenbach ATCC 43300 by microbroth dilution method; assay type: functional
recorded-endpoint: MIC (µg/mL)
Your answer should be a plain number; it is taken to be in µg/mL.

Solved cases below.
| molecule | assay-system | MIC (µg/mL) |
| --- | --- | --- |
| COc1ccccc1C1CCN(C(=O)Cc2ccccc2F)C1 (racemic) | Staphylococcus aureus | 100 |
| O=C(Cc1ccccc1Cl)N1CCC(c2nccs2)C1 (racemic) | Staphylococcus aureus | 100 |

Read off the recorded MIC for O=C(Cc1cccc(F)c1F)N1CCC(c2ccccc2)C1 (racemic) 100

* * *

test: Protein binding in mouse serum; format: ADME, cell-free; conditions: read-out: PB (converted)
recorded-endpoint: fraction unbound
// no unit string in output, number only

Read off the recorded fraction unbound for Cc1c(CN(C)C(=O)/C=C/c2cnc3c(c2)CCC(=O)N3)oc2ccccc12 0.05

* * *

The entries below are paired with their reported MIC.
tested on: Staphylococcus aureus; assay: Antibacterial activity against methicillin-resistant Staphylococcus aureus subsp. aureus Rosenbach ATCC 43300 by microbroth dilution method; type: functional

Solved cases below.
| compound | assay-system | recorded-endpoint | measured-result |
| --- | --- | --- | --- |
| CC(=O)Nc1ccc(/C=C/C(=O)N2CCC(c3ccccc3)C2)cn1 (racemic) | Staphylococcus aureus | MIC | > 200 µg/mL |
| O=C(Cc1ccccc1Cl)N1CCC(c2ccccn2)C1 (racemic) | Staphylococcus aureus | MIC | 200 µg/mL |
| O=C(Cc1ccccc1F)N1CCC(c2ccccc2)C1 (racemic) | Staphylococcus aureus | MIC | 100 µg/mL |
| COc1ccccc1C1CCN(C(=O)Cc2ccc(NC(C)=O)cc2)C1 (racemic) | Staphylococcus aureus | MIC | > 200 µg/mL |
| O=C(Cc1ccccc1F)N1CCC(c2ccc3c(c2)OCO3)C1 (racemic) | Staphylococcus aureus | MIC | > 200 µg/mL |

Read off the recorded MIC for CC(C)S(=O)(=O)c1ccc(CC(=O)N2CCC(c3ccc4c(c3)OCO4)C2)cc1 (racemic) > 200 µg/mL

Read off the recorded MIC for CC(=O)Nc1ccc(CC(=O)N2CCC(c3ccccc3)C2)cc1 (racemic) > 200 µg/mL

Read off the recorded MIC for COc1ccc(C2CCN(C(=O)Cc3ccccc3Cl)C2)cc1 (racemic) > 200 µg/mL

Read off the recorded MIC for O=C(Cc1ccccc1Cl)N1CCC(c2ccc3c(c2)OCO3)C1 (racemic) 25 µg/mL

Read off the recorded MIC for CC(=O)Nc1ccc(/C=C/C(=O)N2CCC(c3ccccn3)C2)cn1 (racemic) > 200 µg/mL

* * *

Biological target: Enoyl-[acyl-carrier-protein] reductase [NADPH] FabI (Staphylococcus aureus, UniProt Q6GI75)
Sequence (Q6GI75 whole entry): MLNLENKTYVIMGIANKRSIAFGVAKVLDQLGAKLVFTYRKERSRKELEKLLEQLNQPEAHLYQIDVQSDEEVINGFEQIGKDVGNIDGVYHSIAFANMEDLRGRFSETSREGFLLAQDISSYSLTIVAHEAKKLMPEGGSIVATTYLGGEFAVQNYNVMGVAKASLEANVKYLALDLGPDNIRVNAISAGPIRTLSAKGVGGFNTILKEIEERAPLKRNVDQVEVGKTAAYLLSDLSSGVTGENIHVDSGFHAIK
The entries below are paired with their reported Ki.
Your answer should be a plain number; it is taken to be in nM.

Read off the recorded Ki for COc1ccc(C2CCN(C(=O)/C=C/c3ccc(NC(C)=O)nc3)C2)cc1 (racemic) 1300

Read off the recorded Ki for COc1ccccc1C1CCN(C(=O)Cc2ccccc2Cl)C1 (racemic) 200

Read off the recorded Ki for O=C(Cc1cccc(F)c1F)N1CCC(c2ccccc2)C1 (racemic) 2700

Read off the recorded Ki for O=C(Cc1ccccc1Cl)N1CCC(c2nccs2)C1 (racemic) 2200

* * *

The entries below are paired with their reported MIC.
system: Acinetobacter baumannii; assay: Synergistic antibacterial activity against MDR Acinetobacter baumannii ATCC BAA-1605 assessed as colistin MIC by checkerboard method; format: functional
Write down the value, and be sure its unit follows.

Solved cases below.
| compound | assay-system | MIC |
| --- | --- | --- |
| COc1ccccc1C1CCN(C(=O)Cc2ccccc2Cl)C1 (racemic) | Acinetobacter baumannii | 0.39 µg/mL |
| O=C(Cc1ccccc1Cl)N1CCC(c2ccc3c(c2)OCO3)C1 (racemic) | Acinetobacter baumannii | 0.78 µg/mL |
| COc1ccccc1C1CCN(C(=O)/C=C/c2ccc(NC(C)=O)nc2)C1 (racemic) | Acinetobacter baumannii | 0.78 µg/mL |

Please find the next compound below.
Read off the recorded MIC for O=C(Cc1ccccc1Cl)N1CCC(c2ccccc2)C1 (racemic) 0.78 µg/mL

* * *

test system: Acinetobacter baumannii; assay: Synergistic antibacterial activity against Acinetobacter baumannii 2208 ATCC 19606 in presence of colistin by checkerboard method; assay type: functional; settings: ATCC 19606 = CIP 70.34 = JCM 6841 2208
recorded-endpoint: log10 MIC (log10 of the value in µg/mL)
Values below are the log10 of the recorded MIC, with µg/mL as the unit.

| compound | recorded-endpoint | measured-result |
| --- | --- | --- |
| COc1ccccc1C1CCN(C(=O)/C=C/c2ccc(NC(C)=O)nc2)C1 (racemic) | log10 MIC | 1.40 |
| O=C(Cc1ccccc1Cl)N1CCC(c2nccs2)C1 (racemic) | log10 MIC | 1.70 |
| O=C(Cc1c(F)cccc1F)N1CCC(c2ccccc2)C1 (racemic) | log10 MIC | 1.40 |

Read off the recorded log10 MIC for O=C(Cc1ccccc1Cl)N1CCC(c2ccccn2)C1 (racemic) 1.70

Read off the recorded log10 MIC for COc1ccccc1C1CCN(C(=O)Cc2c(F)cccc2F)C1 (racemic) 1.70

Read off the recorded log10 MIC for CC(=O)Nc1ccc(/C=C/C(=O)N2CCC(c3nccs3)C2)cn1 (racemic) 2.00

Read off the recorded log10 MIC for CC(=O)Nc1ccc(/C=C/C(=O)N2CCC(c3ccccn3)C2)cn1 (racemic) 2.00

Read off the recorded log10 MIC for O=C(Cc1ccccc1Cl)N1CCC(c2ccccc2)C1 (racemic) 1.10

Read off the recorded log10 MIC for O=C(Cc1cccc(F)c1F)N1CCC(c2ccccc2)C1 (racemic) 1.40

* * *

test: Protein binding in dog serum; format: ADME, cell-free, Canis lupus familiaris; conditions: read-out: PB (converted)
recorded-endpoint: fraction unbound
// no unit string in output, number only

Read off the recorded fraction unbound for Cc1c(CN(C)C(=O)/C=C/c2cnc3c(c2)CCC(=O)N3)oc2ccccc12 [AFN-1252] 0.05

* * *

Target: UniProtKB Q6GI75
Sequence (Q6GI75 whole entry): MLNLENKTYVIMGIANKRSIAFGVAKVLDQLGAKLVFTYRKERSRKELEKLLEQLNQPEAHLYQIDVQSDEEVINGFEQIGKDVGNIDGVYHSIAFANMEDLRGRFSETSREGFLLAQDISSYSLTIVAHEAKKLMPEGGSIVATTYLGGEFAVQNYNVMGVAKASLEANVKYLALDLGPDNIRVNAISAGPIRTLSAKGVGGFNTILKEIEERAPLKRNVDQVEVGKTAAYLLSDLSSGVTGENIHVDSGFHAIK
recorded-endpoint: Ki

Solved cases below.
| compound | Ki |
| --- | --- |
| CC(=O)Nc1ccc(CC(=O)N2CCC(c3nccs3)C2)cc1 (racemic) | > 37.1 µM |
| COc1ccccc1C1CCN(C(=O)/C=C/c2ccc(NC(C)=O)cc2)C1 (racemic) | > 37.1 µM |

Give UniProtKB Q6GI75 Ki for the following compound: CC(C)S(=O)(=O)c1ccc(CC(=O)N2CCC(c3ccc4c(c3)OCO4)C2)cc1 (racemic) > 37.1 µM
